Target: T1, human monomeric MuSK FLAG streptavidin (in house produced, batch 27-6-2019) (human, UniProt O15146 24-495)
T1 construct: also called full length MuSK; not shown: FLAG and streptavidin tags
T1 sequence: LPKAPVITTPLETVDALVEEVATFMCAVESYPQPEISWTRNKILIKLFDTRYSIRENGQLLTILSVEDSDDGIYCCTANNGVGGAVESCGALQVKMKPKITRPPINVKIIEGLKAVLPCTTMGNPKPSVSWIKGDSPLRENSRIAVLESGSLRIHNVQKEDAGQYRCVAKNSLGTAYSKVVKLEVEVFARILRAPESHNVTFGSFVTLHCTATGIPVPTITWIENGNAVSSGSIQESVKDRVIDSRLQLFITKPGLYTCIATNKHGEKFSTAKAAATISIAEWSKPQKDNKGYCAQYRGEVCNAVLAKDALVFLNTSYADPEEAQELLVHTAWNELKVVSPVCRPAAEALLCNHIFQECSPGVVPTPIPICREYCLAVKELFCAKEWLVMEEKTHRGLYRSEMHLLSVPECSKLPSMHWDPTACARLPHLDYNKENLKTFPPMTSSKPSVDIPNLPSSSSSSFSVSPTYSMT
Test: epitope binning ELISA (coated anti-MuSK Fab, MuSK, IgG, anti-Fc HRP); competitor: 3D9b
Provide the reported OD 450 nm of each item.
Numbers only, in OD.

Some binders with recorded OD 450 nm:
3D10a (antibody, human IgG1, kappa, L234A L235A, V domains shown) VH: EVQLVESGGGLVKPGGSLRLSCAASGFTFSASTMAWVRQAPGKGLEWVSSVSGDSHHIYYADSLKGRFTISRDNAKNSLYLQMNSLRAEDTAVYYCARERLLRLGVGFDSWGQGTLVTVSS VL: DIQMTQSPSSLSASVGDRVTITCRASQRISGFVNWYQQKPGKAPKLLIYAASTLQSGVPSRFSGSGSGTDFTLTISSLQPEDFATYYCQQSYSPLYTFGQGTKLEIKR    0.115
3D9b (antibody, human IgG1, kappa, L234A L235A, V domains shown) VH: EVQLVESGGGLVKPGGSLRLSCAASGFTFSTYTMHWVRQAPGKGLEWVSSISSRSAYKYYADSVKGRFTISRDNAKNSLYLQMNSLRAEDTAVYYCARDFFQLGPPRFDSWGQGTLVTVSS VL: DIQMTQSPSSLSASVGDRVTITCRASQRISSFLNWYQQKPGKAPKLLIYGASNLQSGVPSRFSGSGSGTDFTLTISSLQPEDFATYYCQQSYSPSYTFGQGTKLEIKR    0.15
3F6c (antibody, human IgG1, kappa, L234A L235A, V domains shown) VH: EVQLVESGGGLVKPGGSLRLSCAASGFTFSSYTMDWVRQAPGKGLEWVSSIGSNGDYIYYADSVRGRFTISRDNAKNSLYLQMNSLRAEDTAVYYCARGQLAVAGTHFDYWGQGTLVTVSS VL: DIQMTQSPSSLSASVGDRVTITCRASQKVNKYVNWYQQKPGKAPKLLIYAASTLQSGVPSRFSGSGSGTDFTLTISSLQPEDFATYYCQQSYSPLSTFGQGTKLEIKR    0.133

For the next question, use this binder.
Any idea what its OD 450 nm is? The binder is 4D3 (antibody, human IgG1, kappa, L234A L235A, V domains shown) VH: EVQLVESGGGLVKPGGSLRLSCAASGFTFSSYTMTWVRQAPGKGLEWVSSISSGGHYIYYTDSLKGRFTISRDNAKNSLYLQMNSLRAEDTAVYYCARERLLRLGVGFDFWGQGTLVTVSS VL: DIQMTQSPSSLSASVGDRVTITCRASQSISGYLNWYQQKPGKAPKLLIYAASTLQSGVPSRFSGSGSGTDFTLTISSLQPEDFATYYCQQSYSALYTFGQGTKLEIKR
0.061
